molecular target: TEAD1 (Homo sapiens (Human), UniProt P28347); test: TR-FRET lipid pocket probe competition assay (Lipid HTRF), TEAD1; format: binding; settings: 4 hours pre-incubation; read-out: Lipid HTRF TEAD1 IC50
Sequence (P28347 whole entry, species assumed): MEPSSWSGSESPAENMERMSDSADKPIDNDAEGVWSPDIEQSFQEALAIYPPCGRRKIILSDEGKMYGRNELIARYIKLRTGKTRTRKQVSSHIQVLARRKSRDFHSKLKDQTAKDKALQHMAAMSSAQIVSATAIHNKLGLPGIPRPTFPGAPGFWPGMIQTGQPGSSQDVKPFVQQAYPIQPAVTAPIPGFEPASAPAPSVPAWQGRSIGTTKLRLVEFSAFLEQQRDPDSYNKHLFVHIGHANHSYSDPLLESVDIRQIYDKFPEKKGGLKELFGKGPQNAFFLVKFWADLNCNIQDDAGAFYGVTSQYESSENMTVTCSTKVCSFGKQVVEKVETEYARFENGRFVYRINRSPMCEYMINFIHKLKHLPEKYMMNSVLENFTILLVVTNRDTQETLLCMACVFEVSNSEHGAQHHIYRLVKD
parameter: IC50 (nM)

O=C(N1CC(c2nn(-c3ccc(OC(F)(F)F)cc3)c3nccc(CO)c23)C1)C12CC1C2 (centres unmarked) [Compound 153]
580
C=C(F)C(=O)NCc1nn(-c2ccc(OC(F)(F)F)cc2)c2nccc(CO)c12 [Compound 68]
71
C=CC(=O)NCc1nn(-c2ccc(OC(F)(F)F)cc2)c2nccc(-c3cnn(C)c3)c12 [Compound 164]
47.9
C=CC(=O)NCc1nn(-c2ccc(S(F)(F)(F)(F)F)cc2)c2ccccc12 [Compound 3]
7
O=C(C1=CCCC1)N1CC(c2nn(-c3ccc(OC(F)(F)F)cc3)c3nccc(CO)c23)C1 [Compound 150]
560
C=CC(=O)N(C)Cc1nn(-c2ccc(OC(F)(F)F)cc2)c2nccc(CO)c12 [Compound 55]
17
C=C(F)C(=O)N1CC(c2nn(-c3ccc(OC(F)(F)F)cc3)c3nccc(N4CC[C@H](O)C4=O)c23)C1 [Compound 82]
31
O=C(/C=C\Cl)NCc1nn(-c2ccc(OC(F)(F)F)cc2)c2nccc([C@H](O)CO)c12 [Compound 53]
45

I. C=CC(=O)NCc1nn(-c2ccc(OC(F)(F)F)cc2)c2nccc(OCCO)c12 [Compound 126]
II. C=C(F)C(=O)N1CC(c2nn(-c3ccc(OC(F)(F)F)cc3)c3nccc(-c4cnn(CCOC)c4)c23)C1 [Compound 176]
*Q* Hi team, can someone confirm which has the larger IC50: I or II ? Thanks. Reply with the label of the item you choose.
*A* II

A. O=C(/C=C/CF)N1CC(c2nn(-c3ccc(OC(F)(F)F)cc3)c3ccnc(N4CC(O)C4)c23)C1 [Compound 137]
B. CC#CC(=O)N1CC(c2nn(-c3ccc(OC(F)(F)F)cc3)c3nccc([C@H](O)CO)c23)C1 [Compound 129]
*Q* Which of these two has the smaller recorded IC50: A or B ? Reply with the label of the item you choose.
*A* A
(A: 72 nM, B: 110 nM)

I. C=CC(=O)NCc1nn(-c2ccc(OC(F)(F)F)cc2)c2nccc(N3CC(O)C3)c12 [Compound 106]
II. Cc1ccnc2c1c(C1CN(C(=O)/C=C/CO)C1)nn2-c1ccc(OC(F)(F)F)cc1 [Compound 96]
*Q* Hi team, can someone confirm which has the larger IC50: I or II ? Thanks. Reply with the label of the item you choose.
*A* I
(I: 15.5 nM, II: 10 nM)

====

target: TEAD1 (Homo sapiens (Human), UniProt P28347); assay: TR-FRET lipid pocket probe competition assay (Lipid HTRF), TEAD1; assay type: binding; conditions: 4 hours pre-incubation; read-out: Lipid HTRF TEAD1 IC50;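 further: His-tagged TEAD1 with biotinylated probe, detected via Europium anti-His and XL665 streptavidin, probe displacement lowers TR-FRET signal, IC50 from four-parameter nonlinear fit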
parameter: IC50 (nM)

C=C(F)C(=O)N1CC(c2nn(-c3ccc(OC(F)(F)F)cc3)c3nccc(-c4cnn(C)c4)c23)C1
51
CC#CC(=O)NCc1nn(-c2ccc(OC(F)(F)F)cc2)c2nccc(CO)c12
32
O=C(/C=C/CO)N1CC(c2nn(-c3ccc(OC(F)(F)F)cc3)c3nccc(-c4cn[nH]c4)c23)C1
24
C=CC(=O)NCc1nn(-c2ccc(OC(F)(F)F)cc2)c2cccc(C#N)c12
270
C=C(F)C(=O)N1CC(c2nn(-c3ccc(OC(F)(F)F)cc3)c3nccc(N4CC([C@H](O)CO)C4)c23)C1
27
O=C(/C=C/CO)N1CC(c2nn(-c3ccc(OC(F)(F)F)cc3)c3nccc(CO)c23)C1
15
C=CC(=O)NCc1nn(-c2ccc(OC(F)(F)F)cc2)c2nccc(-c3cnn(CCO)c3)c12
17
C=C(F)C(=O)N1CC(c2nn(-c3ccc(OC(F)(F)F)cc3)c3ccnc(N4CC(O)C4)c23)C1
180
C=C(Cl)C(=O)N1CC(c2nn(-c3ccc(OC(F)(F)F)cc3)c3nccc([C@@H](O)CO)c23)C1
19
C=C(F)C(=O)N1CC(c2nn(-c3ccc(OC(F)(F)F)cc3)c3nccc(-c4cnn(C5CC5)c4)c23)C1
86

I. C=CC(=O)NCc1nn(-c2ccc(OC(F)(F)F)cc2)c2nccc(CN(C)C)c12
II. C=C(F)C(=O)N1CC(c2nn(-c3ccc(OC(F)(F)F)cc3)c3nccc(N4CC(CO)(CO)C4)c23)C1
*Q* Which of these two has the smaller recorded IC50: I or II ? Reply with the label of the item you choose.
*A* II

====

target: TEAD3 (Homo sapiens (Human), UniProt Q99594); test: TR-FRET lipid pocket probe competition assay (Lipid HTRF), TEAD3; assay type: binding; conditions: 4 hours pre-incubation; read-out: Lipid HTRF TEAD3 IC50
Sequence (Q99594 whole entry, species assumed): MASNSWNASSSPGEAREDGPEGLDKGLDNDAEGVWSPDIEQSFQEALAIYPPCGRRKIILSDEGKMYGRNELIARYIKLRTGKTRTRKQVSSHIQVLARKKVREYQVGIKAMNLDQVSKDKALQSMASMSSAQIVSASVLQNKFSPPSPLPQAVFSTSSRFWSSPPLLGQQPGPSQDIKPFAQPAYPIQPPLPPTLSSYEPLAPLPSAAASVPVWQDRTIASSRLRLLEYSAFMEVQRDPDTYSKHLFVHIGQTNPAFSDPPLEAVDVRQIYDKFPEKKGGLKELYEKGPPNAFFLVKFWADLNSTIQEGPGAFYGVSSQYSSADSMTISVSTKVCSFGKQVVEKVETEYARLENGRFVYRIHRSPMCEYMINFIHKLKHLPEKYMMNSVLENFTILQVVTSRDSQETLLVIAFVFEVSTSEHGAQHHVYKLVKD
parameter: IC50 (nM)

Before answering, review these 2 worked examples.
CC#CC(=O)NCc1nn(-c2ccc(OC(F)(F)F)cc2)c2nccc(CO)c12 [Compound 98]
460
O=C(C1=CCC1)N1CC(c2nn(-c3ccc(OC(F)(F)F)cc3)c3nccc([C@@H](O)CO)c23)C1 [Compound 115]
11

P. C[C@H](O)/C=C/C(=O)N1CC(c2nn(-c3ccc(OC(F)(F)F)cc3)c3nccc(CO)c23)C1 [Compound 97]
Q. C=C(Cl)C(=O)N1CC(c2nn(-c3ccc(OC(F)(F)F)cc3)c3nccc([C@H](O)CO)c23)C1 [Compound 109]
*Q* Which of these two has the smaller recorded IC50: P or Q ? Reply with the label of the item you choose.
*A* Q
(Q: 18 nM, P: 570 nM)

====

molecular target: TEAD3 (Homo sapiens (Human), UniProt Q99594); test: TR-FRET lipid pocket probe competition assay (Lipid HTRF), TEAD3; format: binding; settings: 4 hours pre-incubation; read-out: Lipid HTRF TEAD3 IC50
pIC50: −log10 of the molar value.
parameter: pIC50

Before answering, review these 6 worked examples.
N#Cc1ccnc2c1c(C1CN(C(=O)/C=C/CO)C1)nn2-c1ccc(OC(F)(F)F)cc1 [Compound 79]
7.70
C=CC(=O)NCc1nn(-c2ccc(OC(F)(F)F)cc2)c2nccc(N(C)[C@H]3C[C@H](O)C3)c12 [Compound 90]
5.43
C=CC(=O)NCc1nn(-c2ccc(OC(F)(F)F)cc2)c2nccc(N3CC(N(C)C)C3)c12 [Compound 107]
4.30
C=CC(=O)NCc1nn(-c2ccc(OC(F)F)cc2)c2nccc(CO)c12 [Compound 140]
5.36
C=CC(=O)NCc1nn(-c2ccc(S(F)(F)(F)(F)F)cc2)c2nccc(CO)c12 [Compound 87]
6.28
C=C(F)C(=O)N1CC(c2nn(-c3ccc(OC(F)(F)F)cc3)c3ccnc(N4CC(O)C4)c23)C1 [Compound 78]
4.89

A. O=C(/C=C/CO)N1CC(c2nn(-c3ccc(OC(F)(F)F)cc3)c3ccnc(N4CC(O)C4)c23)C1 [Compound 103]
B. C=C(C)C(=O)N1CC(c2nn(-c3ccc(OC(F)(F)F)cc3)c3nccc(CO)c23)C1 [Compound 22]
C. C=CC(=O)NCc1nn(-c2ccc(OC(F)(F)F)cc2)c2nccc(N3CC[C@H](O)C3)c12 [Compound 46]
D. C=C(F)C(=O)N1CC(c2nn(-c3ccc(OC(F)(F)F)cc3)c3nccc(-c4cnn(C)c4)c23)C1 [Compound 158]
*Q* Rank the items in ascending order with respect to pIC50. // format: requested-order list of labels
*A* A, D, C, B

====

target: TEAD3 (Homo sapiens (Human), UniProt Q99594); test: TR-FRET lipid pocket probe competition assay (Lipid HTRF), TEAD3; type: binding; settings: 4 hours pre-incubation; read-out: Lipid HTRF TEAD3 IC50
parameter: IC50 (µM)

C=CC(=O)NCc1nn(-c2ccc(OC(F)(F)F)cc2)c2cccc(C#N)c12 [Compound 186]
0.255
C=CC(=O)NCc1nn(-c2ccc(OC(F)(F)F)cc2)c2nccc(N[C@H]3C[C@@H](O)C3)c12 [Compound 143]
50
C=C(F)C(=O)N1CC(c2nn(-c3ccc(OC(F)(F)F)cc3)c3nccc(N4CC(CO)(CO)C4)c23)C1 [Compound 142]
50
COC/C=C/C(=O)N1CC(c2nn(-c3ccc(OC(F)(F)F)cc3)c3nccc(CO)c23)C1 [Compound 40]
0.066
C=CC(=O)NCc1nn(-c2ccc(OC(F)(F)F)cc2)c2nccc([C@@H](C)O)c12 [Compound 62]
0.86
C/C=C/C(=O)N1CC(c2nn(-c3ccc(OC(F)(F)F)cc3)c3nccc(CO)c23)C1 [Compound 120]
0.27
C=CC(=O)NCc1nn(-c2ccc(OC(F)(F)F)cc2)c2nccc(-c3cnn(CC(N)=O)c3)c12 [Compound 165]
50
C=CC(=O)NCc1nn(-c2ccc(OC(F)(F)F)cc2)c2nccc(C(=O)NCCO)c12 [Compound 25]
3.7

a. O=C(/C=C/CF)N1CC(c2nn(-c3ccc(OC(F)(F)F)cc3)c3ccnc(N4CC(O)C4)c23)C1 [Compound 137]
b. C=CC(=O)NCc1nn(-c2ccc(OC(F)(F)F)cc2)c2nccc(N3CC[C@@H](O)C3)c12 [Compound 47]
c. C=CC(=O)NCc1nn(-c2ccc(OC(F)(F)F)cc2)c2nccc(-c3cn[nH]c3)c12 [Compound 134]
*Q* Rank the items in ascending order with respect to IC50. // format: requested-order list of labels
*A* c, b, a

1. C=CC(=O)NCc1nn(-c2ccc(S(F)(F)(F)(F)F)cc2)c2cccnc12 [Compound 12]
2. C=CC(=O)NCc1nn(-c2ccc(OC(F)(F)F)cc2)c2nccc(N3CC(O)C3)c12 [Compound 106]
*Q* Hi team, can someone confirm which has the larger IC50: 1 or 2 ? Thanks. Reply with the label of the item you choose.
*A* 2
(2: 0.935 µM, 1: 0.63 µM)

I. C=C(F)C(=O)N1CC(c2nn(-c3ccc(OC(F)(F)F)cc3)c3nccc(N4CC([C@@H](O)CO)C4)c23)C1 [Compound 58]
II. C=CC(=O)NCc1nn(-c2ccc(OC(F)(F)F)cc2)c2ncccc12 [Compound 188]
*Q* Which of these two has the smaller recorded IC50: I or II ? Reply with the label of the item you choose.
*A* II
